Provide the recorded z-score for the entries that follow.
# assay.protocol: basal S. cerevisiae growth modulation, no modifier, primary screen, OD600, strain BY4716, 24 h, basal condition (AID 1173)
# test.conditions: OD600, 24 h, higher = more signal, called active from +8 up or from −8 down
Lab note: jot the number down without any unit.

In: State its z-score: COCCOC(=O)N1C(=O)[C@@]2(c3cc(C#Cc4ccc(OC)cc4)ccc31)[C@H](C(=O)NC[C@H](O)c1ccccc1)[C@H]1C(=O)O[C@H](c3ccccc3)[C@H](c3ccccc3)N1[C@@H]2c1ccc(O)cc1
Out: -0.11

In: State its z-score: C=CCN1C(=O)[C@@]2(O[C@@H](CCn3cc([C@H](O)c4ccccc4)nn3)[C@H]([Si](C)(C)c3ccc(OC)cc3)[C@H]2C)c2ccccc21
Out: 0.117

In: State its z-score: CN(C)CCCN1C(=O)[C@@]2(c3ccc([N+](=O)[O-])cc3)CC(=O)N(CC34CC5CC(CC(C5)C3)C4)[C@@H]2c2ccc(CO)cc21
Out: 0.24

In: State its z-score: O=C1c2ccccc2[C@@]2(Cc3ccccc3N(C3CC3)C2=O)[C@H](c2ccc(CO)cc2)N1C1CCCCC1
Out: 0.979

In: State its z-score: O=C1C[C@]2(c3ccc([N+](=O)[O-])cc3)C(=O)N(Cc3ccccc3)c3cc(CO)ccc3[C@H]2N1CC12CC3CC(CC(C3)C1)C2
Out: -0.0685

In: State its z-score: NC(=O)NCC#Cc1ccc2c(c1)[C@]1(C(=O)N2)[C@H](c2ccc(O)cc2)N2[C@H](c3ccccc3)[C@H](c3ccccc3)OC(=O)[C@H]2[C@@H]1C(=O)Nc1nc2ccccc2s1
Out: 3.54

---

Provide the recorded composite z-score for the entries that follow.
# assay.protocol: binders of probe aFGF2 on microarray, primary screen, stem cell growth factor project, biochemical, small-molecule microarray, fluorescence 635/667 (AID 1067);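 note: measures binding of biotinylated aFGF2 protein to printed compounds on slides; z-score merges feature fluorescence and signal-to-noise across triplicate slides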
# test.conditions: higher = more signal
Lab note: jot the number down without any unit.

In: State its composite z-score: O=C(CS)NCCCCCCNC(=O)[C@H]1C[C@H]2C(=O)N[C@@H](Cc3ccccc3)C(=O)N2[C@H]1c1cccc(OCCO)c1
Out: 0.0465

In: State its composite z-score: CCOC(=O)C1=CC[C@@H](c2ccccc2C(F)(F)F)N(S(=O)(=O)c2ccc(C)cc2)C1
Out: 0.313

In: State its composite z-score: CCOC(=O)[C@@H]1[C@@H]2C(=O)N(CC)C(=O)[C@@H]2C[C@@H]1Sc1ccccc1
Out: 0.0308

In: State its composite z-score: COc1ccccc1CN1C(=O)c2ccccc2[C@@H](C(=O)NC(C)C)[C@@H]1c1ccc(CO)cc1
Out: 0.0451

---

# target.or.system: Albumin (Bos taurus)
# assay.protocol: bovine serum albumin binders on microarray, profiling panel, artefact control for SMM control protein annotation, biochemical, small-molecule microarray, Alexa647 label, 635/667 nm fluorescence (AID 1118);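 note: score merges 667 nm emission intensity and signal-to-noise per printed compound spot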
# test.conditions: BSA-A647 binding, fluorescence 635 nm, higher = more signal
Provide the recorded composite z-score for the entries that follow.
Lab note: jot the number down without any unit.

In: State its composite z-score: C=CCOC(=O)[C@@H]1[C@H]2C(=O)O[C@H](c3ccccc3)[C@H](c3ccccc3)N2[C@H](c2ccc(OCCOC(=O)[C@H]3C[C@H]4C(=O)N[C@@H](CCCC[N+](C)(C)C)C(=O)N4[C@H]3c3ccc(O)cc3)cc2)[C@@]12C(=O)Nc1ccc(I)cc12
Out: -0.914

In: State its composite z-score: CC(C)CN1C(=O)[C@@]2(c3ccc([N+](=O)[O-])cc3)CC(=O)N(CC34CC5CC(CC(C5)C3)C4)[C@@H]2c2ccc(CO)cc21
Out: 0.291

In: State its composite z-score: C[C@@H]1ON(c2ccc(C(=O)OC(C)(C)C)cc2)[C@H](c2ccc(Br)cc2)[C@H]1C(=O)N1C(=O)OC[C@H]1Cc1ccccc1
Out: 0.778

---

# assay.protocol: inhibitors of hydroxyurea-induced Chk1 phosphorylation, primary screen, imaging, HeLa, phospho-Chk1 antibody, percent positive cells (AID 1186)
# test.conditions: hydroxyurea-induced phospho-Chk1 immunofluorescence imaging, higher = more signal
outcome.measure: z-score
Lab note: jot the number down without any unit.

In: State its z-score: C=CCOC(=O)[C@H]1[C@@H]2C(=O)O[C@@H](c3ccccc3)[C@@H](c3ccccc3)N2[C@@H](c2ccc(OCCOC(=O)[C@H]3C[C@H]4C(=O)N[C@@H](Cc5ccccc5)C(=O)N4[C@H]3c3ccc(O)cc3)cc2)[C@]12C(=O)Nc1ccc(I)cc12
Out: -0.688

In: State its z-score: O=C(N1CCCCC1)[C@@]1(Cc2ccccc2)COC(c2ccc(OCCCO)cc2)=N1
Out: -0.542

In: State its z-score: C=CCOC(=O)[C@@H]1[C@H]2C(=O)O[C@H](c3ccccc3)[C@H](c3ccccc3)N2[C@H](c2ccc(OCCOC(=O)[C@H]3C[C@H]4C(=O)N[C@@H](CC(C)C)C(=O)N4[C@H]3c3ccc(O)cc3)cc2)[C@@]12C(=O)Nc1ccc(I)cc12
Out: -0.25

In: State its z-score: CC(=O)n1cc(C(O)C2C=CC3C(=O)N(Cc4ccccc4)C(=O)C3N2n2cnnc2)c2ccccc21 (stereo unspecified)
Out: 1.19

In: State its z-score: COCCOC(=O)N1C(=O)[C@@]2(c3cc(C#CC4=CCCCC4)ccc31)[C@H](c1ccccc1OCCO)N1[C@H](c3ccccc3)[C@H](c3ccccc3)OC(=O)[C@H]1[C@@H]2C(=O)N1CCc2cc(OC)c(OC)cc2C1
Out: 0.0575

In: State its z-score: CCOC(=O)C[C@H]1[C@H](OC(=O)c2ccccc2-c2ccccc2)[C@@H](NC(=O)c2ccc3ccccc3n2)c2cc(OCCCO)ccc2N1C(=O)c1ccc2ccccc2n1
Out: -0.492

---

Provide the recorded composite z-score for the entries that follow.
# assay.protocol: small-molecule microarray binders of probe aDKK1, primary screen, biochemical, biotinylated probe, 635/667 nm fluorescence (AID 1099);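 note: score merges 667nm spot fluorescence with signal to noise across triplicate slides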
# test.conditions: higher = more signal
Lab note: jot the number down without any unit.

In: State its composite z-score: COC(=O)C(CC#Cc1ccc2c(c1)[C@]1(C(=O)N2)[C@H](C(=O)O)[C@H]2C(=O)O[C@H](c3ccccc3)[C@H](c3ccccc3)N2[C@@H]1c1ccccc1OCCO)C(=O)OC
Out: 0.485

In: State its composite z-score: COC(=O)[C@@]1(Cc2ccc(OC)cc2)[C@H]2c3cc(C(=O)N(C)C)n(Cc4nc5ccccc5[nH]4)c3C[C@H]2CN1C(=O)c1ccccc1
Out: 0.956

In: State its composite z-score: CC(C)CN1C(=O)[C@@]2(Cc3ccccc31)c1ccccc1C(=O)N(Cc1ccccc1C(F)(F)F)[C@H]2c1ccc(CO)cc1
Out: -0.0363

In: State its composite z-score: C=C(/C(=C/C[C@@H](OC(=O)c1ccncc1)c1ccc(OCCO)cc1)c1cc(C(=O)OC)ccc1OC)C(C)C
Out: -0.354

In: State its composite z-score: NCCCCCCNC(=O)[C@H]1C[C@H]2C(=O)N[C@@H](Cc3ccccc3)C(=O)N2[C@H]1c1ccc(O)cc1
Out: 0.21

In: State its composite z-score: CCOC(=O)C[C@H]1[C@H](OC(=O)c2ccccc2-c2ccccc2)[C@@H](NC(=O)CC(C)C)c2cc(OCCCO)ccc2N1C(=O)c1ccc2ccccc2n1
Out: -0.0242

In: State its composite z-score: O=C1OC[C@@H](c2ccccc2)N2CC(/C=C/c3ccccc3)=CC12 (some centres not stated)
Out: -0.144

---

Provide the recorded composite z-score for the entries that follow.
# Test system: PRMT1 (protein arginine N-methyltransferase 1)
# assay.protocol: PRMT1 binders on small-molecule microarrays, primary screen, biochemical, small-molecule microarray, 635 nm fluorescence (AID 1088);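 note: binding of Prmt1 protein to compounds spotted on small-molecule microarray slides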
# test.conditions: small-molecule microarray binding, higher = more signal
Lab note: jot the number down without any unit.

In: State its composite z-score: O=C1O[C@@H](c2ccccc2)[C@@H](c2ccccc2)N2[C@@H](c3ccc(O)cc3)[C@]3(C(=O)Nc4ccc(C#CC5=CCCCC5)cc43)[C@@H](C(=O)N3CCN(c4ncccn4)CC3)[C@H]12
Out: 1.55

In: State its composite z-score: CC(C)CCC[C@@H](C)[C@H]1CC[C@@]2(C)C3=C(CC[C@]12C)[C@@]1(C)CC[C@H](OC(=O)c2ccc(Br)cc2)C(C)(C)C1CC3 (some centres undefined)
Out: 0.739

In: State its composite z-score: CCOC(=O)C[C@H]1[C@H](OC(=O)Cc2ccc3c(c2)OCO3)[C@@H](NC(=O)Cc2ccc(OC)cc2)c2cc(OCCCO)ccc2N1C(=O)c1ccccc1
Out: 1.26

In: State its composite z-score: COC(=O)[C@@]1(Cc2ccc(F)cc2)[C@H]2c3cc(C(=O)N4CCCC4)n(CCc4c[nH]c5ccc(OC)cc45)c3C[C@H]2CN1C(=O)c1ccccc1
Out: -0.508

In: State its composite z-score: C=CCN1C(=O)[C@@]2(CCC(=O)OC(C)(C)C)N=C(c3ccc(OCCCO)cc3)O[C@H]2c2ccccc21
Out: 1.47

In: State its composite z-score: COC(=O)[C@]1(CCS(=O)(=O)c2ccccc2)N=C(c2ccc(OCCCO)cc2)O[C@@H]1c1ccccc1CN=[N+]=[N-]
Out: 1.54

In: State its composite z-score: CO[C@H]1O[C@H](CO)[C@@H](OC(=O)Nc2ccccc2-c2ccccc2)[C@H](OC(=O)Nc2ccc3c(c2)OCO3)[C@@H]1OC(=O)Nc1ccc2c(c1)OCO2
Out: 1.53

In: State its composite z-score: COC(=O)[C@@]1(Cc2ccc(OC)cc2)[C@H]2c3cc(C(=O)N4CCCC4)n(CCc4cc5ccccc5[nH]4)c3C[C@H]2CN1C(=O)c1ccccc1
Out: 0.907

In: State its composite z-score: O=C(O)[C@H](Cc1ccccc1)n1cc(-c2ccccn2)nn1
Out: 0.427

In: State its composite z-score: C=C(/C(=C/C[C@@H](OC(=O)c1ccncc1)c1ccccc1OCCO)c1cc(C(=O)OC)ccc1OC)C(C)C
Out: 1.56

In: State its composite z-score: NC(=O)NCC#Cc1ccc2c(c1)[C@]1(C(=O)N2)[C@H](C(=O)O)[C@H]2C(=O)O[C@H](c3ccccc3)[C@H](c3ccccc3)N2[C@@H]1c1ccccc1OCCO
Out: 1.43

In: State its composite z-score: CCN(CC)c1ccc(N2CC=CC34O[C@@H]5/C=C\CCC(C)OC(=O)C5[C@H]3C(=O)N(CCO)[C@@H]4C2=O)cc1 (some centres undefined)
Out: 1.2

In: State its composite z-score: CC(C)(C)OC(=O)CC[C@@]1(C(=O)O)N=C(c2ccc(OCCCO)cc2)O[C@@H]1c1ccccc1CN=[N+]=[N-]
Out: 1.29

In: State its composite z-score: CCOc1cc(C(O)C2C=CC3C(=O)N(C4CCCCC4)C(=O)C3N2Nc2ccc(OC)cc2)ccc1O (centres undefined)
Out: 1.17
